Reported IC50 values for a set of molecules
- target: GCS (Canis lupus familiaris, UniProt A0A8I3MXG6)
- Construct: endogenous in cells
- Sequence (A0A8I3MXG6 1-394): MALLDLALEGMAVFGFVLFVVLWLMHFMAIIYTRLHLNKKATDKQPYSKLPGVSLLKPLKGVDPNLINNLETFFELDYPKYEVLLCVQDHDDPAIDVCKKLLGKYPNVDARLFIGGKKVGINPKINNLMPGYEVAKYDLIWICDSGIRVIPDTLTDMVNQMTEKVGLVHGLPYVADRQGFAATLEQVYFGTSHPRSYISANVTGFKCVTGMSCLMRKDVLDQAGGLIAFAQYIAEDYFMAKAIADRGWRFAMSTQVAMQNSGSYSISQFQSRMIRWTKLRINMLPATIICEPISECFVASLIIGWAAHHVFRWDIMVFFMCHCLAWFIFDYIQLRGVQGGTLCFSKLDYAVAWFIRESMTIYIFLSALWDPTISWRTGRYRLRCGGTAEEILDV
- assay-procedure: GCS enzymatic assay (MDCK cell lysate, NBD-ceramide to glucosylceramide, LC/MS)
- test-conditions: Table 2; class symbols A, B, C; the table does not say which of the assays; read-out: Data Range (IC50 values)

Provide the documented IC50 with GCS (Canis lupus familiaris, UniProt A0A8I3MXG6) as the system for O=C(N[C@H](CN1CCCC1)[C@H](O)c1ccc2c(c1)OCCO2)[C@@H]1CCN(c2cccc(-c3ccc(F)cc3)n2)C1
1 to 30 nM

Request body: readout IC50, system GCS (Canis lupus familiaris, UniProt A0A8I3MXG6), query O=C(N[C@H](CN1CCCC1)[C@H](O)c1cc(F)c2c(c1)OCCO2)[C@@H]1CCN(c2ccccn2)C1 . Return the value.
1 to 30 nM

State its IC50 on GCS (Canis lupus familiaris, UniProt A0A8I3MXG6): O=C(N[C@H](CN1CCCC1)[C@H](O)c1ccc(OC2CC2)cc1)[C@@H]1CCN(c2ccc(F)cc2)C1
1 to 30 nM

###

The entries below come with measured IC50 values attached.
- target: GCS (Canis lupus familiaris)
- Construct: endogenous in cells
- assay-procedure: GCS enzymatic assay (MDCK cell lysate, NBD-ceramide to glucosylceramide, LC/MS)
- test-conditions: Table 2; class symbols A, B, C; the table does not say which of the assays; read-out: Data Range (IC50 values)
- Method: This assay was modified based on the study by Larsen et al. (J. Lipid Res. 2011, 53, 282). […] Protein concentration was determined using BCA assay kit (Pierce). […] The quantitative analysis of NBD-Ceramide and glucosylceramide was performed on a Shimadzu ultra-fast liquid chromatography (Shimadzu, Japan) coupled with API 4000 triple quadrupole mass spectrometer (Applied Biosystems, Concord, Ontario, Canada). […]

Completed entries (count: 10):
O=C(N[C@H](CN1CCCC1)[C@H](O)c1ccc(Cl)cc1)[C@@H]1CCN(c2ccc(Cl)cc2)C1 [Compound 156] | 100 to 1000 nM
O=C(N[C@H](CN1CCC1)[C@H](O)c1ccc2c(c1)OCCO2)[C@@H]1CCN(c2ccc(Cl)cc2)C1 [Compound 78] | 1 to 30 nM
O=C(N[C@H](CN1CCCC1)[C@H](O)c1ccc(OC2CC2)c(Cl)c1)[C@@H]1CCN(c2ccccc2)C1 [Compound 150] | 1 to 30 nM
O=C(N[C@H](CN1CCCC1)[C@H](O)c1ccc2c(c1)OCCO2)C1CCN(c2ccc(Cl)cc2)C1 (stereo partly shown) [Compound 1C] | 1 to 30 nM
O=C(N[C@H](CN1CCCC1)[C@H](O)c1ccc(OC2CC2)nc1)[C@@H]1CCN(c2ccc(Cl)cc2)C1 [Compound 13] | 30 to 100 nM
O=C(N[C@H](CN1CCCC1)[C@H](O)c1cc(F)c2c(c1)OCCO2)[C@@H]1CCN(c2ccc3cc(F)ccc3c2)C1 [Compound 52] | 1 to 30 nM
O=C(N[C@H](CN1CCCC1)[C@H](O)c1ccc(OC2CCOCC2)c(Cl)c1)[C@@H]1CCN(c2ccc(Cl)cc2)C1 [Compound 45] | 1 to 30 nM
O=C(N[C@H](CN1CCCC1)[C@H](O)c1ccc(OC2CCOCC2)c(Cl)c1)[C@@H]1CCN(c2ccc3cc(Cl)sc3c2)C1 [Compound 101] | 1 to 30 nM
Cc1cccc(Oc2cc(N3CC[C@@H](C(=O)N[C@H](CN4CCCC4)[C@H](O)c4ccc(OC5CC5)c(Cl)c4)C3)ccc2Cl)n1 [Compound 131] | 1 to 30 nM
O=C(N[C@H](CN1CCCC1)[C@H](O)c1cc2c(c(C(F)(F)F)c1)OCCO2)[C@@H]1CCN(c2ccc(Cl)cc2)C1 [Compound 137] | 30 to 100 nM

What measured IC50 is associated with O=C(N[C@H](CN1CCCC1)[C@H](O)c1cc(F)c2c(c1)OCCO2)[C@@H]1CCN(c2cccc(-c3ccc(F)cc3)n2)C1 [Compound 124] on GCS (Canis lupus familiaris)?
1 to 30 nM

Report IC50 for O=C(N[C@H](CN1CCCC1)[C@H](O)c1ccc(OC2COC2)c(Cl)c1)[C@@H]1CCN(c2ccc3cc(F)ccc3c2)C1 [Compound 117] tested on GCS (Canis lupus familiaris).
1 to 30 nM

Notebook entry, GCS (Canis lupus familiaris) assay: IC50 of O=C(N[C@H](CN1CCCC1)[C@H](O)c1ccc(OC2CC2)c(Cl)c1)[C@@H]1CCN(c2ccc3cc(Cl)sc3c2)C1 [Compound 109] = ?
30 to 100 nM
